This listing pairs sequences with measured protein stability index.
assay: protein stability index of a GFP-peptide fusion (GPS, HEK-293T) (PSI 1-6); higher = more stable; conditions: treatment: MLN4924 1 uM, 8 h; c terminus: a fixed tail appended;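 further: 24-mer peptide tiles fused after GFP, lentivirally expressed, FACS-sorted into six equal bins by GFP/DsRed ratio, decoded by Illumina sequencing, PSI is the read-weighted mean bin number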
Lab note: record just the number, no unit beside it.

Record excerpt, results attached:
| macromoleculeSequence | protein stability index |
| --- | --- |
| ALAKKFIDKNTQLTLQVYREQADS [TRIM14] | 3.09 |
| RYWRSLRVMKVEDREGPSSSKLVT [HDAC6] | 3.07 |
| EICLWGRHIFMGYLESETETTEAI [ACSBG2] | 3.05 |
| NFSIVPYEKKFDTFIPLEPLPQIP [SPATS1] | 2.97 |

Now for a further sequence.
Requested field: protein stability index. Item: MVHVARLLLLLLTFFLRTDAETPP [PTPRD]
2.95
